Entries annotated with measured inhibition
molecular target: Tubulin beta chain (Bos taurus) (UniProt Q6B856); assay: Evaluated for % inhibition of colchicine binding to tubulin.; parameters: concentration or dose not given beside the values; conditions: concentration not given here
Sequence (Q6B856 whole entry): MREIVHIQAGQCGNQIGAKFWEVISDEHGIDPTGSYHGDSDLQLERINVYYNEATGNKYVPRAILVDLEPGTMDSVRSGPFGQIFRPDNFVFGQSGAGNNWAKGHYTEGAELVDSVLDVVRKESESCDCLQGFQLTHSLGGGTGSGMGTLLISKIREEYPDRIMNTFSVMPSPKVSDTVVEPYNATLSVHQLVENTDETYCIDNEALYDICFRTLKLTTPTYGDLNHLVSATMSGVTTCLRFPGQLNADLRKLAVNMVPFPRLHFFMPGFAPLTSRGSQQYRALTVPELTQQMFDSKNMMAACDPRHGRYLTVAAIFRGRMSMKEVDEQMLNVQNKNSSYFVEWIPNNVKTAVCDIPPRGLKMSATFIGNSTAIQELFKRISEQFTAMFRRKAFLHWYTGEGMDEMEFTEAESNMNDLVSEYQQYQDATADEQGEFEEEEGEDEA
Value Type: inhibition (%)

# Given Smiles, Value Type, Recorded Measurement
data = [
    ("CCOc1cc2c(cc1O)C(=O)C[C@@H]1[C@@H]2CC[C@]2(C)[C@@H](O)CC[C@@H]12", "inhibition", 19),
    ("CCOc1cc2c(cc1O)[C@@H](O)C[C@@H]1[C@@H]2CC[C@]2(C)[C@@H](O)CC[C@@H]12", "inhibition", 12),
    ("CCOc1cc2c(cc1O)CC[C@@H]1[C@@H]2CC[C@]2(C)[C@@H](OS(=O)O[C@H]3CC[C@H]4[C@@H]5CCc6cc(O)c(OCC)cc6[C@H]5CC[C@]34C)CC[C@@H]12", "inhibition", 24),
]

* * *

system: HCT-116; assay: In vitro cytotoxicity value corresponding to 50% growth inhibition against HCT116 (colon) cell line.; assay type: functional; conditions: Homo sapiens
Value Type: GI50 (nM)

# Given Smiles, Value Type, Recorded Measurement
records = [
    ("CC#Cc1cc2c(cc1O)CC[C@@H]1[C@@H]2CC[C@]2(C)[C@@H](O)CC[C@@H]12", "GI50", 480),
    ("CCOc1cc2c(cc1O)[C@@H](O)C[C@@H]1[C@@H]2CC[C@]2(C)[C@@H](O)CC[C@@H]12", "GI50", 350),
    ("C[C@]12CC[C@@H]3c4cc(OCC(F)(F)F)c(O)cc4/C(=N\\O)C[C@H]3[C@@H]1CC[C@@H]2O", "GI50", 31),
    ("C[C@]12CC[C@@H]3c4cc(OCC(F)(F)F)c(O)cc4CC[C@H]3[C@@H]1CC[C@@H]2O", "GI50", 3200),
]

* * *

Entries annotated with measured IC50
target: Tubulin (Bos taurus, UniProt Q6B856+Q862L2+Q862F3); test: Evaluated for inhibition of tubulin polymerization.; type: functional

# Given Smiles, Unit Info, Comparative Sign, IC50
records = [
    ("CCOc1cc2c(cc1O)[C@@H](O)C[C@@H]1[C@@H]2CC[C@]2(C)[C@@H](O)CC[C@@H]12", "µM", "=", 2.9),
    ("C[C@]12CC[C@@H]3c4cc(Br)c(O)c(Br)c4CC[C@H]3[C@@H]1CC[C@@H]2O", "µM", ">", 40),
    ("CCOc1cc2c(cc1O)C(=O)C[C@@H]1[C@@H]2CC[C@]2(C)[C@@H](O)CC[C@@H]12", "µM", "=", 4.1),
    ("CCOc1cc2c(cc1O)CC[C@@H]1[C@@H]2CC[C@]2(C)[C@@H](N)CC[C@@H]12.Cl", "µM", ">", 40),
    ("CCOc1cc2c(cc1O)CC[C@@H]1[C@@H]2CC[C@]2(C)[C@@H](OS(=O)O[C@H]3CC[C@H]4[C@@H]5CCc6cc(O)c(OCC)cc6[C@H]5CC[C@]34C)CC[C@@H]12", "µM", "=", 5.9),
    ("Cc1cc2cc3c(cc2o1)CC[C@@H]1[C@@H]3CC[C@]2(C)[C@@H](O)CC[C@@H]12", "µM", ">", 40),
    ("COc1cc2c(cc1O)CC[C@@H]1[C@@H]2CC[C@]2(C)[C@@H](O)CC[C@@H]12", "µM", "=", 3.1),
]
